system: 60 different human tumor cell lines; assay: cells; conditions: U-251, read-out: LC50
observation.type: CC50

C[C@]12CCc3sc(Nc4ccc(F)cc4F)nc3C1=CC[C@@H]1[C@@H]2CC[C@]2(C)C(=O)CC[C@@H]12: > 100 µM
C[C@]12CCc3sc(NCCc4ccccc4)nc3C1=CC[C@@H]1[C@@H]2CC[C@]2(C)C(=O)CC[C@@H]12: > 100 µM
C[C@]12CC[C@H]3[C@@H](CC=C4c5sc(-c6ccc(O)cc6)nc5CC[C@@]43C)[C@@H]1CC[C@@H]2O: > 100 µM

###

tested on: 60 different human tumor cell lines; assay: NCI Development Therapeutics Program 60 cell line screen, one dose; format: cell-based; conditions: Colon Cancer, SW-620
Growth Percent for assorted compounds
observation.type: Growth Percent (%)

C[C@]12CCc3nc(Nc4ccc(O)cc4)sc3C1=CC[C@@H]1[C@@H]2CC[C@]2(C)C(=O)CC[C@@H]12: −32.15
C[C@]12CC[C@H]3[C@@H](CC=C4c5sc(Nc6ccccc6)nc5CC[C@@]43C)[C@@H]1CC[C@@H]2O: −19.44
C[C@]12CCc3sc(Nc4ccc(OC(F)(F)F)cc4)nc3C1=CC[C@@H]1[C@@H]2CC[C@]2(C)C(=O)CC[C@@H]12: 43.34
C[C@]12CCc3sc(Nc4cccc(O)c4)nc3C1=CC[C@@H]1[C@@H]2CC[C@]2(C)C(=O)CC[C@@H]12: −4.13
C[C@]12CCc3nc(N)sc3C1=CC[C@@H]1[C@@H]2CC[C@]2(C)C(=NNC(N)=O)CC[C@@H]12: −59.20
C[C@]12CCc3sc(NCCc4ccccc4)nc3C1=CC[C@@H]1[C@@H]2CC[C@]2(C)C(=O)CC[C@@H]12: 35.34
C[C@]12CC[C@H]3[C@@H](CC=C4c5sc(-c6ccc(O)cc6)nc5CC[C@@]43C)[C@@H]1CC[C@@H]2O: 71.71
